Listing of entries alongside the reported TGI.
# System: SF-268 CNS
# experiment description: NCI tumour cell line growth inhibition, 48 h
Where a SMILES comes first, the peptide text is derived from it. [ ]: non-standard residue; d: D form. The star is where a group is joined. NMeF = CN[CH](Cc1ccccc1)C(=O)O; NMeV = CN[CH](C(=O)O)C(C)C; Boc = CC(C)(C)OC(=O)*
endpoint label: TGI

compound	result
CC(C)C(NC(=O)OC(C)(C)C)C(=O)N(C)C(Cc1ccccc1)C(=O)N(C)C(C(=O)O)C(C)C (stereo not drawn) (Boc-Val-[NMeF]-[NMeV]-OH; configuration not given here)	> 100 µM
Cc1ccc(C(=O)CN(/C=C/C(=O)C(F)(F)F)c2ccc(S(N)(=O)=O)cc2)cc1	> 100 µM
CC(=O)/C(C)=N/NC(=O)c1ccccc1O	> 100 µM
OCC(O)COCn1nncc1Cn1ncc2c(SCc3ccccc3)ncnc21 (centres undefined)	41.1 µM

----------
# Tested on: HS 578T breast
# experiment description: NCI tumour cell line growth inhibition, 48 h
Listing of entries alongside the reported TGI.
endpoint label: TGI

compound	endpoint label	result
O=C1CC(=Nc2ccc(Cl)cc2)C(c2ccccc2)N1c1ccccc1 (stereo unspecified)	TGI	26.6 µM
CCCN1CCC(=O)N(CCC(F)(F)C(F)(F)C(F)(F)C(F)(F)C(F)(F)C(F)(F)F)C1=S	TGI	> 100 µM
COc1ccccc1/C=C1\SC(=S)N(/C=C2\C(=O)Oc3ccccc3C2=O)C1=O	TGI	> 100 µM
Cc1cccc(N2CCN(C(=S)c3ccc4c(c3)OCO4)CC2)c1	TGI	5.58 µM
O=Cc1c(C(=O)O)[nH]c(=O)[nH]c1=O	TGI	> 100 µM
CN1c2ccc(Cl)cc2C(=O)NC1c1ccc([N+](=O)[O-])s1 (stereo unspecified)	TGI	34.2 µM
CC(C)[Si](OC1=C(C(=O)N(C)c2cccc(Cl)c2)CCCC1)(C(C)C)C(C)C	TGI	30.3 µM
COC1=C(C)C(=O)c2c(c(COC(N)=O)c3n2CC2C3N2C)C1=O (stereo unspecified)	TGI	0.986 µM
CCCCCCCC/C=C/CCCCCCCC(=O)OC[C@H]1O[C@@H](n2ccc(N)nc2=O)C(F)(F)[C@@H]1O	TGI	> 100 µM
O=C1OC(C(O)CO)C(=O)C1=O (stereo unspecified)	TGI	9940 µM
COC(=O)[C@@H](C)CNS(=O)(=O)N(c1cc(C(F)(F)F)cc(C(F)(F)F)c1)C1CCN(Cc2ccc(F)cc2)CC1	TGI	27.1 µM
CCN(CC)C(=S)N/N=C(/C)c1cccc(/C(C)=N\NC(=S)N(CC)CC)n1	TGI	> 100 µM
O=C1C(CN2CCCCC2)CCC1CN1CCCCC1 (stereo unspecified)	TGI	> 73.2 µM
CN1CCC(O)(C(C)(C)C)CC1	TGI	> 100 µM
COc1cc(C(=O)N(Cc2cccnc2)C(=S)N(Cc2cccnc2)C(=O)c2cc(OC)c(OC)c(OC)c2)cc(OC)c1OC	TGI	> 100 µM
Cc1cc(S(=O)(=O)N=C2N(Cc3ccccc3)CCN2Cc2ccccc2)c(S)cc1Cl	TGI	> 100 µM
CC(C)(C)OC(=O)NC(Cc1ccc(OCc2ccccc2)cn1)C(=O)N1CCCCC1 (stereo unspecified)	TGI	> 100 µM
CON(C)C(=O)CNC(=O)OCC1c2ccccc2-c2ccccc21	TGI	> 100 µM
Clc1ccc(C2=Nn3c(COc4ccccc4Cl)nnc3SC2)c(Cl)c1	TGI	69 µM
COc1ccc(-c2n[nH]nc2-c2cc(OC)c(OC)c(OC)c2)cc1	TGI	> 83.9 µM
CC1=NNC(N)=N/C1=C\C(Sc1ccc(Cl)cc1)c1ccc([N+](=O)[O-])cc1 (stereo unspecified)	TGI	> 100 µM
